TEST_NAME: Solubility experiment of TH-302 (saturated solution method, HPLC)
Type: physicochemical
ASSAY_SETUP: 1% polyethylene glycol aqueous solution (volume), water, thermodynamic from solid; read-out: Solubility
VALUE_KIND: solubility (µg/mL)
Numbers only here, please. The scale is µg/mL.

-- ask Give its solubility value. Item: Cn1c(COP(=O)(NCCBr)NCCBr)cnc1[N+](=O)[O-] [TH-302]
-- reply 6810

###

TEST_NAME: Solubility experiment of TH-302 (saturated solution method, HPLC)
Type: physicochemical
ASSAY_SETUP: aqueous with cosolvent or surfactant or cyclodextrin, thermodynamic from solid; 40% tert-butanol aqueous solution, volume ratio; commercial TH-302; read-out: Solubility
VALUE_KIND: solubility

-- ask Report solubility for Cn1c(COP(=O)(NCCBr)NCCBr)cnc1[N+](=O)[O-] [TH-302] please.
-- reply > 40 mg/mL

###

TEST_NAME: Solubility experiment of TH-302 (saturated solution method, HPLC)
Type: physicochemical
ASSAY_SETUP: 1% ethanol aqueous solution (volume), water, thermodynamic from solid; read-out: Solubility
VALUE_KIND: solubility (µg/mL)
Give the value in µg/mL but do not write µg/mL after it.

-- ask Quick check: solubility of `Cn1c(COP(=O)(NCCBr)NCCBr)cnc1[N+](=O)[O-]` ?
-- reply 6580

###

TEST_NAME: Solubility experiment of TH-302 (saturated solution method, HPLC)
Type: physicochemical
ASSAY_SETUP: organic solvent or mixture, thermodynamic from solid; 90% tert-butanol/10% ethanol, volume ratio; commercial TH-302; read-out: Solubility
Method: The solubility is measured in an experiment by the saturated solution method; that is, the solid TH-302 was directly charged into the solvent until insoluble matter or turbidity appears. […] For the method for measuring the concentration of TH-302 (mg/ml), please refer to the HPLC method described in the patent WO2008083101A1 owned by Threshold Pharmaceuticals Inc. (see Example 2. An Ethanol Formulation of TH302, for details); and the external standard method was used for quantification.
VALUE_KIND: solubility (mg/mL)
Expressed in mg/mL, but write only the number.

-- ask I am curious: what solubility value has been reported for `Cn1c(COP(=O)(NCCBr)NCCBr)cnc1[N+](=O)[O-]` ?
-- reply 10.7

###

TEST_NAME: Solubility experiment of TH-302 (saturated solution method, HPLC)
Format: physicochemical
ASSAY_SETUP: 1% N,N-dimethylacetamide aqueous solution (volume), water, thermodynamic from solid; 1%N,N-dimethlyacetamide aqueous solution (volume); read-out: Solubility
VALUE_KIND: solubility (µg/mL)
The response must be a number in µg/mL with no trailing unit.

-- ask Given the entry `Cn1c(COP(=O)(NCCBr)NCCBr)cnc1[N+](=O)[O-]` , report its measured solubility.
-- reply 8050

###

TEST_NAME: Solubility experiment of TH-302 (saturated solution method, HPLC)
Assay type: physicochemical
ASSAY_SETUP: pH 8, aqueous buffer, thermodynamic from solid; pH8, phosphate buffer solution; read-out: Solubility
VALUE_KIND: solubility (µg/mL)
Quick note: give the figure in µg/mL, leave out the unit.

-- ask What measured solubility goes with `Cn1c(COP(=O)(NCCBr)NCCBr)cnc1[N+](=O)[O-]` ?
-- reply 5940

###

TEST_NAME: Solubility experiment of TH-302 (saturated solution method, HPLC)
Type: physicochemical
ASSAY_SETUP: tert-butanol-water mixed solvent, aqueous with cosolvent or surfactant or cyclodextrin, thermodynamic from solid; summary statement, maximum reached; read-out: solubility in the tert-butanol-water mixed solvent system
VALUE_KIND: solubility

-- ask Report solubility for Cn1c(COP(=O)(NCCBr)NCCBr)cnc1[N+](=O)[O-] [TH-302] please.
-- reply ≥ 160 mg/mL

###

TEST_NAME: Solubility experiment of TH-302 (saturated solution method, HPLC)
Format: physicochemical
ASSAY_SETUP: pH 6, aqueous buffer, thermodynamic from solid; pH6, phosphate buffer solution; read-out: Solubility
VALUE_KIND: solubility (µg/mL)
Numbers only; they are read as µg/mL.

-- ask Using the record for Cn1c(COP(=O)(NCCBr)NCCBr)cnc1[N+](=O)[O-] [TH-302] , report its solubility.
-- reply 5810

###

TEST_NAME: Solubility experiment of TH-302 (saturated solution method, HPLC)
Type: physicochemical
ASSAY_SETUP: organic solvent or mixture, thermodynamic from solid; 60% tert-butanol in water, mass ratio; TH-302 synthesized by the applicants; read-out: Solubility
VALUE_KIND: solubility (mg/mL)
The reply should be a number in mg/mL, with the unit left off.

-- ask For the compound shown here, `Cn1c(COP(=O)(NCCBr)NCCBr)cnc1[N+](=O)[O-]` , give the reported solubility.
-- reply 146

###

TEST_NAME: Solubility experiment of TH-302 (saturated solution method, HPLC)
Type: physicochemical
ASSAY_SETUP: organic solvent or mixture, thermodynamic from solid; 95% tert-butanol in water, mass ratio; TH-302 synthesized by the applicants; read-out: Solubility
VALUE_KIND: solubility
Answer format: number, then unit.

-- ask Value lookup for solubility; key = `Cn1c(COP(=O)(NCCBr)NCCBr)cnc1[N+](=O)[O-]`
-- reply 36.8 mg/mL

###

TEST_NAME: Solubility experiment of TH-302 (saturated solution method, HPLC)
Format: physicochemical
ASSAY_SETUP: aqueous with cosolvent or surfactant or cyclodextrin, thermodynamic from solid; 30% tert-butanol in water, mass ratio; TH-302 synthesized by the applicants; read-out: Solubility
VALUE_KIND: solubility (mg/mL)
Form entry: value (mg/mL) — number only.

-- ask solubility for Cn1c(COP(=O)(NCCBr)NCCBr)cnc1[N+](=O)[O-] [TH-302] ?
-- reply 42

###

TEST_NAME: Solubility experiment of TH-302 (saturated solution method, HPLC)
Format: physicochemical
ASSAY_SETUP: organic solvent or mixture, thermodynamic from solid; tert-butanol; commercial TH-302; read-out: Solubility
VALUE_KIND: solubility (µg/mL)
Give just the numeric value; µg/mL need not be written.

-- ask So what's the measured solubility for this one? `Cn1c(COP(=O)(NCCBr)NCCBr)cnc1[N+](=O)[O-]`
-- reply 8980

###

TEST_NAME: Solubility experiment of TH-302 (saturated solution method, HPLC)
Type: physicochemical
ASSAY_SETUP: aqueous with cosolvent or surfactant or cyclodextrin, thermodynamic from solid; 20% tert-butanol aqueous solution, volume ratio; commercial TH-302; read-out: Solubility
VALUE_KIND: solubility (µg/mL)
Write it as a number; the unit µg/mL goes unstated.

-- ask Fill in: solubility of `Cn1c(COP(=O)(NCCBr)NCCBr)cnc1[N+](=O)[O-]` is ___
-- reply 10000

###

TEST_NAME: Solubility experiment of TH-302 (saturated solution method, HPLC)
Type: physicochemical
ASSAY_SETUP: organic solvent or mixture, thermodynamic from solid; 80% tert-butanol aqueous solution, volume ratio; commercial TH-302; read-out: Solubility
VALUE_KIND: solubility

-- ask Look up solubility for this compound: Cn1c(COP(=O)(NCCBr)NCCBr)cnc1[N+](=O)[O-] [TH-302]
-- reply 88.5 mg/mL

These data points were gathered from patent EP4674418A1.
